# SYSTEM_NAME: HiBit-BRM fusion protein (Homo sapiens, UniProt P51531)
# Construct: expressed in transfected cells
# Sequence (P51531 whole entry, the tested form may be a part): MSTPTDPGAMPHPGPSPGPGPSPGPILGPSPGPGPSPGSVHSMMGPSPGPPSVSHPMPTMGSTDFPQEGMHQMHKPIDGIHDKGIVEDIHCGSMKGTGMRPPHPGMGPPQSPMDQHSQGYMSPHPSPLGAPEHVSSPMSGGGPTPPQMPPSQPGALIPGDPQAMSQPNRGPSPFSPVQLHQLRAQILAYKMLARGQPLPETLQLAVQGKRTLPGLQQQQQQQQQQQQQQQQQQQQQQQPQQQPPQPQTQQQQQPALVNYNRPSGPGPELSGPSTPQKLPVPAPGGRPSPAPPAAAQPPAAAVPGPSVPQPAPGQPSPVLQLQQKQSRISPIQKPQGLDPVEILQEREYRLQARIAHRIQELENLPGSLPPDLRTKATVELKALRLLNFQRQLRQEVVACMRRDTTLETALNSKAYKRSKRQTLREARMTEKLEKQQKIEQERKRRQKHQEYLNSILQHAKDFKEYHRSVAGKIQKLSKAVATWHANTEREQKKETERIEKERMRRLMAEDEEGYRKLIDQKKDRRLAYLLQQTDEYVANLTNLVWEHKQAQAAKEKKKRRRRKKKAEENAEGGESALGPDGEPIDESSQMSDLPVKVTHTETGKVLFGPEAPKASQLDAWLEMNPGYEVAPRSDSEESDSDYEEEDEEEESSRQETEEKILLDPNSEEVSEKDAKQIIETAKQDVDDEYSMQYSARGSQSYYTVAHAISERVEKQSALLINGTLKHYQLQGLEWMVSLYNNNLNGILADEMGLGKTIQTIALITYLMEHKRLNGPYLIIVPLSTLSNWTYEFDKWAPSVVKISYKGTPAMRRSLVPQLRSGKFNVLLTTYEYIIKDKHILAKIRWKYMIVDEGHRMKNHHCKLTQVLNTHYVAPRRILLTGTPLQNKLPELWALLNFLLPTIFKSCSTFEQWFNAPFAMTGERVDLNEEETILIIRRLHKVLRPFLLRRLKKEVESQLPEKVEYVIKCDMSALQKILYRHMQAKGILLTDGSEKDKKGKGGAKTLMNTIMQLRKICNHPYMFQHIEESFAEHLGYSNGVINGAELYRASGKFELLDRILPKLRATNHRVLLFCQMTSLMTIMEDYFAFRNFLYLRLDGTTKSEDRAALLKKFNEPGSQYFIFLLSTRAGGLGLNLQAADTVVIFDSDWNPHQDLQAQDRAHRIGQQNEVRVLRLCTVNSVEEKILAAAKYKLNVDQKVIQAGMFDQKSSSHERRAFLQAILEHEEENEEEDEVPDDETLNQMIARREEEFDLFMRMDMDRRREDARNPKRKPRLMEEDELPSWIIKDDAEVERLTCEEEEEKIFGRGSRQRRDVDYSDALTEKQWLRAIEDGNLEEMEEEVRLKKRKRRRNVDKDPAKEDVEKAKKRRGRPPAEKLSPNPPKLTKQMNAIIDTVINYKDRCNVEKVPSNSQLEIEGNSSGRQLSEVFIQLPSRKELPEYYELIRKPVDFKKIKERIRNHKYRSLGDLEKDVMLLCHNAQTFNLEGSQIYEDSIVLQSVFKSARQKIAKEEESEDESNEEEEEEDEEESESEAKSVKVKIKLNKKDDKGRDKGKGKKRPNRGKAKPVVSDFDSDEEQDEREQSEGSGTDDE
# ASSAY_OVERVIEW: HiBiT-BRM cell-based degradation assay (Nano-Glo HiBiT Lytic Detection, 24 h)
# STATED_CONDITIONS: stable HeLa cell line expressing HiBiT-BRM, read-out: BRM HiBit Degradation IC50
The entries below come with measured DC50 values attached.

Prompt: Look up DC50 for this molecule: `Cc1ncsc1-c1ccc([C@H](C)NC(=O)[C@@H]2C[C@@H](O)CN2C(=O)[C@@H](c2cc(-c3ccc(N4CCC(c5sc6nnc(-c7ccccc7O)cc6c5C)CC4)nn3)no2)C(C)C)cc1`
Completion: < 10 nM

Prompt: Look up DC50 for this molecule: `Cc1nc(N2CC[C@@H](c3sc4nnc(-c5ccccc5O)cc4c3C)C2)ccc1-c1cc([C@H](C(=O)N2C[C@H](O)C[C@H]2C(=O)N[C@@H](C)c2ccc(-c3scnc3C)cc2)C(C)C)on1`
Completion: > 10 nM

Prompt: Look up DC50 for this molecule: `Cc1ncsc1-c1ccc([C@H](C)NC(=O)[C@@H]2C[C@@H](O)CN2C(=O)[C@@H](c2cc(-c3cnc(N4CC[C@H](c5sc6nnc(-c7ccccc7O)cc6c5C5CC5)C4)nc3)no2)C(C)C)cc1`
Completion: < 10 nM

Prompt: Look up DC50 for this molecule: `Cc1ncsc1-c1ccc([C@H](C)NC(=O)[C@@H]2C[C@@H](O)CN2C(=O)[C@@H](c2cc(-c3cnc(N4C[C@H]5C[C@@H]4C[C@H]5c4cc5cc(-c6ccccc6O)nnc5s4)nc3)no2)C(C)C)cc1`
Completion: > 1000 nM

Prompt: Look up DC50 for this molecule: `Cc1ncsc1-c1ccc([C@H](C)NC(=O)[C@@H]2C[C@@H](O)CN2C(=O)[C@@H](c2cc(N3CC4(CC(c5sc6nnc(-c7ccccc7O)cc6c5C)C4)C3)no2)C(C)C)cc1`
Completion: < 10 nM

Prompt: Look up DC50 for this molecule: `Cc1nc(N2CCC(c3sc4nnc(-c5ccccc5O)cc4c3C)CC2)ccc1-c1noc([C@H](C(=O)N2C[C@H](O)C[C@H]2C(=O)N[C@@H](C)c2ccc(-c3scnc3C)cc2)C(C)C)c1C`
Completion: < 10 nM

----------
The entries below come with measured DC50 values attached.
# SYSTEM_NAME: HiBit-BRM fusion protein (Homo sapiens, UniProt P51531)
# Construct: expressed in transfected cells
# ASSAY_OVERVIEW: HiBiT-BRM cell-based degradation assay (Nano-Glo HiBiT Lytic Detection, 24 h)
# STATED_CONDITIONS: stable HeLa cell line expressing HiBiT-BRM, read-out: BRM HiBit Degradation IC50
# Description: Procedure: A stable HeLa cell line expressing HiBiT-BRM was generated. On day 0, 5000 cells were seeded in 40 μL of media into each well of 384-well cell culture plates. […] The plates were shaken for 10 minutes at room temperature and the bioluminescence read using an EnVision plate reader (PerkinElmer). The degradation % was calculated using the following formula: % degradation=100%-100%×(LumSample−LumLC)/(LumHC−LumLC). […]

// worked examples, DC50 included
COMPOUND	DC50
Cc1ncsc1-c1ccc([C@H](C)NC(=O)[C@@H]2C[C@@H](O)CN2C(=O)[C@@H](c2cc(N3CCN(c4sc5nnc(-c6ccccc6O)cc5c4C)CC3)no2)C(C)C)cc1	> 10 nM
Cc1ncsc1-c1ccc([C@H](C)NC(=O)[C@@H]2C[C@@H](O)CN2C(=O)[C@@H](c2cc(N3CCC4(CC3)CC(c3cc5cc(-c6ccccc6O)nnc5s3)C4)no2)C(C)C)cc1	> 10 nM
Cc1ncsc1-c1ccc([C@H](C)NC(=O)[C@@H]2C[C@@H](O)CN2C(=O)[C@@H](c2cc(-c3cnc(N4CC(c5sc6nnc(-c7ccccc7O)cc6c5C)C4)nc3)no2)C(C)C)cc1 (single isomer, unassigned)	< 10 nM
Cc1nc(N2CC[C@H](c3sc4nnc(-c5ccccc5O)cc4c3C)C2)ccc1-c1cc([C@H](C(=O)N2C[C@H](O)C[C@H]2C(=O)N[C@@H](C)c2ccc(-c3scnc3C)cc2)C(C)C)on1	< 10 nM

Prompt: Look up DC50 for this compound: `Cc1ncsc1-c1ccc([C@H](C)NC(=O)[C@@H]2C[C@@H](O)CN2C(=O)[C@@H](c2cc(-c3cnc(N4CCC(c5sc6nnc(-c7ccccc7O)cc6c5C)CC4)cn3)no2)C(C)C)cc1`
Completion: < 10 nM

----------
# SYSTEM_NAME: HiBit-BRG1 fusion protein (Homo sapiens)
# Construct: expressed in transfected cells
# Sequence (P51532 whole entry, the tested form may be a part): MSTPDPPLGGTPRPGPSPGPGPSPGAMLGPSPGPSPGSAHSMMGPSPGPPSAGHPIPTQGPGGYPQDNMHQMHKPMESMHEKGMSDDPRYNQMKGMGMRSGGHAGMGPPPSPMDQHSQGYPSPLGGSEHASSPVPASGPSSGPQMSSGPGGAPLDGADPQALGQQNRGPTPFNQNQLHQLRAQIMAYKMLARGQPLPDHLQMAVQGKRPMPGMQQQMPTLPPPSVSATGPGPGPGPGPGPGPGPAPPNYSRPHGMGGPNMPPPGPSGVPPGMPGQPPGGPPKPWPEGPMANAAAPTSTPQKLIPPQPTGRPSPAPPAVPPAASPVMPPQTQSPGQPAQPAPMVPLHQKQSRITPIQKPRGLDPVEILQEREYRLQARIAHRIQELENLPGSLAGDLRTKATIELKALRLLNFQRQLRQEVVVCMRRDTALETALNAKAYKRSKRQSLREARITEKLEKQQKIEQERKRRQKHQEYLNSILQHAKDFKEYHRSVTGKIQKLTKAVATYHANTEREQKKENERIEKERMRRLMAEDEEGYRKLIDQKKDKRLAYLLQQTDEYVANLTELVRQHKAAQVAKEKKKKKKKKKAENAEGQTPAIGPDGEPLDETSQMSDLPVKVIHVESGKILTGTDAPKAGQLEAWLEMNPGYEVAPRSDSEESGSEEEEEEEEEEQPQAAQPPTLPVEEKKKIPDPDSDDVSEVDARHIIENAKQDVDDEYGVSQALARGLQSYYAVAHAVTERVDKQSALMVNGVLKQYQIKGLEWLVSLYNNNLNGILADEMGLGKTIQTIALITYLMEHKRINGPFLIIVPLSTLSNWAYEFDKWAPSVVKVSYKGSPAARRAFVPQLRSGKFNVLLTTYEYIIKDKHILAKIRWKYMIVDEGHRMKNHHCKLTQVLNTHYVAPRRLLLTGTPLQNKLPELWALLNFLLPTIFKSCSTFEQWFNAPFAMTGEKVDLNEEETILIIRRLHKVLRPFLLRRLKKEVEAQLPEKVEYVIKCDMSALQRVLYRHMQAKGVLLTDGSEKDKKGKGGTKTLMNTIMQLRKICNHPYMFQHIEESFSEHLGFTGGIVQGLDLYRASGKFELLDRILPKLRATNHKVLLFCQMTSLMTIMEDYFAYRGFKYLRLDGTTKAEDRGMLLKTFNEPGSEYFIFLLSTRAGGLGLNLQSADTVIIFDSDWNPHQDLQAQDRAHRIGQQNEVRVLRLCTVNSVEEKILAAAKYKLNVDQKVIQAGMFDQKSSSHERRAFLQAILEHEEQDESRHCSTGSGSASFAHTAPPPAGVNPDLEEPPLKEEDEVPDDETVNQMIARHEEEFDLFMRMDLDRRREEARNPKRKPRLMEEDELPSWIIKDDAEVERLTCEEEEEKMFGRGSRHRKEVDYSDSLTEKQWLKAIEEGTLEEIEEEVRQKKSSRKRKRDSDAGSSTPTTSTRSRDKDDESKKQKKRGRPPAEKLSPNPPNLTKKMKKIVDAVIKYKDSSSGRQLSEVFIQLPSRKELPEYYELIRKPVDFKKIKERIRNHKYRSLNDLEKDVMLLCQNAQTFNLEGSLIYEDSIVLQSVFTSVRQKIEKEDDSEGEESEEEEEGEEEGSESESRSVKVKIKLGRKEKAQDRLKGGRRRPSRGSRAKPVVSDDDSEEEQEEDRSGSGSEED
# ASSAY_OVERVIEW: HiBiT-BRG1 cell-based degradation assay (Nano-Glo HiBiT Lytic Detection, 24 h)
# STATED_CONDITIONS: stable HeLa cell line expressing HiBit-BRG1 and LgBit, read-out: BRG1 HiBit Degradation Maximum (%)
MEASURED_ENDPOINT: Dmax

// worked examples, Dmax included
COMPOUND	Dmax
Cc1ncsc1-c1ccc([C@H](C)NC(=O)[C@@H]2C[C@@H](O)CN2C(=O)[C@@H](c2cc(-c3ccc(N4CCC(c5sc6nnc(-c7ccccc7O)cc6c5C)CC4)cc3F)no2)C(C)C)cc1	< 50%
Cc1ncsc1-c1ccc([C@H](C)NC(=O)[C@@H]2C[C@@H](O)CN2C(=O)[C@@H](c2cc(-c3cnc(N4CC[C@H](c5sc6nnc(-c7ccccc7O)cc6c5C5CC5)C4)nc3)no2)C(C)C)cc1	< 50%
Cc1ncsc1-c1ccc([C@H](C)NC(=O)[C@@H]2C[C@@H](O)CN2C(=O)[C@@H](c2cc(N3CC[C@H](c4cc5nnc(-c6ccccc6O)cc5s4)C3)no2)C(C)C)cc1	< 50%
Cc1ncsc1-c1ccc([C@H](C)NC(=O)[C@@H]2C[C@@H](O)CN2C(=O)[C@@H](c2cc(-c3cnc(N4CC[C@@H](c5cc6cc(-c7ccccc7O)nnc6s5)C4)nc3)no2)C(C)C)cc1 (single isomer, unassigned)	< 50%
Cc1ncsc1-c1ccc([C@H](C)NC(=O)[C@@H]2C[C@@H](O)CN2C(=O)[C@@H](c2cc(-c3ccnc(N4CC[C@@H](c5sc6nnc(-c7ccccc7O)cc6c5C)C4)n3)no2)C(C)C)cc1	< 50%
Cc1ncsc1-c1ccc([C@H](C)NC(=O)[C@@H]2C[C@@H](O)CN2C(=O)[C@@H](c2cc(-c3cnc(N4CCC(O)(c5sc6nnc(-c7ccccc7O)cc6c5C)CC4)nc3)no2)C(C)C)cc1	< 50%

Prompt: Look up Dmax for this compound: `Cc1ncsc1-c1ccc([C@H](C)NC(=O)[C@@H]2C[C@@H](O)CN2C(=O)[C@@H](c2cc(N3CCC4(CC[C@@H](c5sc6nnc(-c7ccccc7O)cc6c5C)C4)CC3)no2)C(C)C)cc1`
Completion: > 50%

Prompt: Look up Dmax for this compound: `Cc1ncsc1-c1ccc([C@H](C)NC(=O)[C@@H]2C[C@@H](O)CN2C(=O)[C@@H](c2cc(-c3ccc(N4CCC(c5sc6nnc(-c7ccccc7O)cc6c5C)CC4)cc3)no2)C(C)C)cc1`
Completion: < 50%

----------
# SYSTEM_NAME: HiBit-BRM fusion protein (Homo sapiens)
# Construct: expressed in transfected cells
# ASSAY_OVERVIEW: HiBiT-BRM cell-based degradation assay (Nano-Glo HiBiT Lytic Detection, 24 h)
# STATED_CONDITIONS: stable HeLa cell line expressing HiBiT-BRM, read-out: BRM HiBit Degradation IC50
MEASURED_ENDPOINT: DC50

// worked examples, DC50 included
COMPOUND	SYSTEM_NAME	DC50
Cc1ncsc1-c1ccc([C@H](C)NC(=O)[C@@H]2C[C@@H](O)CN2C(=O)[C@@H](c2cc(-c3cnc(N4CC[C@@H](c5cc6cc(-c7ccccc7O)nnc6s5)C4)nc3)no2)C(C)C)cc1 (single isomer, unassigned)	HiBit-BRM fusion protein (Homo sapiens)	< 10 nM
Cc1ncsc1-c1ccc([C@H](C)NC(=O)[C@@H]2C[C@@H](O)CN2C(=O)[C@@H](c2cc(N3CCC4(CCC(c5sc6nnc(-c7ccccc7O)cc6c5C)CC4)CC3)no2)C(C)C)cc1	HiBit-BRM fusion protein (Homo sapiens)	> 10 nM
Cc1ncsc1-c1ccc([C@H](C)NC(=O)[C@@H]2C[C@@H](O)CN2C(=O)[C@@H](c2cc(N3CC[C@H](c4sc5nnc(-c6ccccc6O)cc5c4C)C3)no2)C(C)C)cc1	HiBit-BRM fusion protein (Homo sapiens)	< 10 nM

Field: next compound
Prompt: Look up DC50 for this compound: Cc1ncsc1-c1ccc([C@H](C)NC(=O)[C@@H]2C[C@@H](O)CN2C(=O)[C@@H](c2cc(Oc3ccnc(N4CCC(c5sc6nnc(-c7ccccc7O)cc6c5C)CC4)n3)no2)C(C)C)cc1 (single isomer, unassigned)
Completion: > 1000 nM
